Cited source for all entries: patent US4176009A

Exercise: state measured Rate of hydrolysis by non-specific peptidases for each of the molecules provided.
- Test system: non-specific peptidases
- Assay info: Rate of hydrolysis of DNP-peptide derivatives by non-specific peptidases (Example 15)
- Format: biochemical, human
- Protocol conditions: 5×10^-4 M peptide, 37° C., pH 7.5; average of three experiments; extraction with ethyl acetate (* compounds: ethyl acetate-n-butanol 1:0.15)
Non-standard residues stand in square brackets, D forms with d. Residues, ends and D or L forms follow the SMILES beside them. *: point of attachment. Dnp = O=[N+]([O-])c1ccc(*)c([N+](=O)[O-])c1
Give the quantity in OD365/hr, number only.

Q: Entry CC[C@H](C)[C@H](NC(=O)CNC(=O)[C@H](CCC(N)=O)NC(=O)[C@@H]1CCCN1c1ccc([N+](=O)[O-])cc1[N+](=O)[O-])C(=O)N[C@@H](C)C(=O)NCC(=O)N[C@@H](CCC(N)=O)C(=O)N[C@H](CCCNC(=N)N)C(=O)O [Example 1, DNP-Pro-Gln-Gly-Ile-Ala-Gly-Gln-D-Arg-OH] (Dnp-PQGIAGQ[dR]-OH) : reported Rate of hydrolysis by non-specific peptidases = ?
A: 0

Q: # get_value(readout='Rate of hydrolysis by non-specific peptidases', item= CC[C@H](C)[C@H](NC(=O)CNC(=O)[C@H](C)NC(=O)[C@@H]1CCCN1c1ccc([N+](=O)[O-])cc1[N+](=O)[O-])C(=O)N[C@@H](C)C(=O)NCC(=O)N[C@@H](CCC(N)=O)C(=O)N[C@H](CCCNC(=N)N)C(=O)O [Example 5, DNP-Pro-Ala-Gly-Ile-Ala-Gly-Gln-D-Arg-OH] (Dnp-PAGIAGQ[dR]-OH) )
A: 0.010

Q: Give the measured Rate of hydrolysis by non-specific peptidases of CC[C@H](C)[C@H](NC(=O)CNC(=O)[C@H](C)Nc1ccc([N+](=O)[O-])cc1[N+](=O)[O-])C(=O)N[C@@H](C)C(=O)NCC(=O)N[C@@H](CCC(N)=O)C(=O)N[C@H](CCCNC(=N)N)C(=O)O .
A: 0.016

Q: So what's the measured Rate of hydrolysis by non-specific peptidases for this one? CC(C)C[C@H](NC(=O)CNC(=O)[C@H](CCC(N)=O)NC(=O)[C@@H]1CCCN1c1ccc([N+](=O)[O-])cc1[N+](=O)[O-])C(=O)N[C@@H](C)C(=O)NCC(=O)N[C@@H](CCC(N)=O)C(=O)N[C@H](CCCNC(=N)N)C(=O)O [Example 4, DNP-Pro-Gln-Gly-Leu-Ala-Gly-Gln-D-Arg-OH] (Dnp-PQGLAGQ[dR]-OH)
A: 0.031

Q: Reported Rate of hydrolysis by non-specific peptidases for CC[C@H](C)[C@H](NC(=O)CNC(=O)[C@H](CC(C)C)NC(=O)[C@@H]1CCCN1c1ccc([N+](=O)[O-])cc1[N+](=O)[O-])C(=O)N[C@@H](C)C(=O)NCC(=O)N[C@@H](CCC(N)=O)C(=O)N[C@H](CCCNC(=N)N)C(=O)O [Example 9, DNP-Pro-Leu-Gly-Ile-Ala-Gly-Gln-D-Arg-OH] (Dnp-PLGIAGQ[dR]-OH) : what is it?
A: 0
